PROCEDURE_DETAILS: viability of uninfected HEp-2 cells – cell-based, HTS, cytotoxicity control for RSV inhibitor project, dose response (AID 2410)
Format: functional
CONDITIONS_USED: human respiratory syncytial virus
The source made the active and inactive calls. No rule for the calls is given here.
TEST_READOUT: CC50

# annotated cases, reported CC50 shown
CC(=O)C(C)Oc1ccc2c3c(c(=O)oc2c1)CCCC3 (centres undefined)    31.8 µM (active)
CCn1c(SCC(=O)Nc2ccc3c(c2)c2ccccc2n3CC)nnc1-c1ccco1    48.9 µM (active)
Cc1sc2nc3c(SC(C)C(=O)O)cc(C(=O)c4ccccc4O)cn3c(=O)c2c1C (centres undefined)    42.7 µM (active)

Next molecule, CC50 to be filled in.
Enquiry: Give a short answer stating reported CC50 for Cc1nn(-c2ccccc2)c(C)c1/C=N/n1c(S)nnc1-c1ccncc1 .
Return: > 50 µM (active)
